# protocolDescription: Thiol reactivity of compound at pH 7.4 buffer at 100 uM and measured for 4 hrs every 5 mins in presence of DTNB and TCEP by microplate reader analysis
# Type: physicochemical
# studyConditions: pH 7.4, 4 h
parameterMeasured: Drug metabolism

Example compounds with recorded Drug metabolism:
INSERT INTO measurements (compound, parametermeasured, valuereported) VALUES
  ('CS(=O)(=O)NC1CCN(C(=O)CCl)CC1', 'Drug metabolism', 'Metabolite_Detected'),
  ('O=C(CCl)NC1CCCC2CCCCC21 (centres undefined)', 'Drug metabolism', 'Metabolite_Notdetected'),
  ('O=C(CCl)NC1CCC2CCCCC2C1 (centres undefined)', 'Drug metabolism', 'Metabolite_Notdetected'),
  ('O=C(CCl)NC1CCCC(OP(=O)(Oc2ccccc2)Oc2ccccc2)C1 (centres undefined)', 'Drug metabolism', 'Metabolite_Detected'),
  ('CC1CCCN(C(=O)CCl)C1 (centres undefined)', 'Drug metabolism', 'Metabolite_Detected'),
  ('O=C(CCl)N1CCC(COP(=O)(O)O)C1 (centres undefined)', 'Drug metabolism', 'Metabolite_Detected'),
  ('O=C(CCl)N1CCCc2ccccc21', 'Drug metabolism', 'Metabolite_Detected'),
  ('COc1ccc2nc(SC3CCN(C(=O)CCl)CC3)[nH]c2n1', 'Drug metabolism', 'Metabolite_Detected');

Incoming: Which Drug metabolism value is on record for O=C(CCl)N1CCC(N2CCC(Br)C2=O)C1 (centres undefined) ?
Outgoing: Metabolite_Detected

Incoming: Which Drug metabolism value is on record for COc1cc(NC(=O)CCl)cc(OC)c1OC ?
Outgoing: Metabolite_Detected

Incoming: Which Drug metabolism value is on record for O=C(CCl)N1CCC(c2ccccc2)CC1 ?
Outgoing: Metabolite_Detected

Incoming: Which Drug metabolism value is on record for O=C(CCl)N1CCN(CC(=O)N2CCCCC2)CC1 ?
Outgoing: Metabolite_Detected

Incoming: Which Drug metabolism value is on record for CCOC(=O)C1CCCN(C(=O)CCl)C1 (centres undefined) ?
Outgoing: Metabolite_Detected

Incoming: Which Drug metabolism value is on record for O=C(CCl)NC1CCCCC1 ?
Outgoing: Metabolite_Notdetected

Incoming: Which Drug metabolism value is on record for O=C(CCl)N1CCC(COP(=O)(Oc2ccccc2)Oc2ccccc2)C1 (centres undefined) ?
Outgoing: Metabolite_Detected

---

# protocolDescription: Thiol reactivity of compound at pH 7.4 buffer assessed as fold decrease by measuring second order rate constant at 100 uM and measured for 4 hrs every 5 mins in presence of DTNB and TCEP by microplate reader analysis relative to Iodoacetamide
# Type: physicochemical
# studyConditions: pH 7.4, 4 h
Can you tell me fold change (FC) for the items I'm about to list?
Format: numeric value only, no unit, no commentary.

Incoming: Which fold change (FC) value is on record for O=C(CCl)NC1CCCC2CCCCC21 (stereo not given) ?
Outgoing: 33

Incoming: Which fold change (FC) value is on record for O=C(CCl)N1CCN(CCC2CCCCC2)CC1 ?
Outgoing: 3

Incoming: Which fold change (FC) value is on record for O=C(CCl)Nc1ccc(C2CCCCC2)cc1 ?
Outgoing: 167

Incoming: Which fold change (FC) value is on record for O=C(CCl)N1CCC(N2CCC(Br)C2=O)C1 (stereo not given) ?
Outgoing: 2

Incoming: Which fold change (FC) value is on record for O=C(CCl)Nc1nccs1 ?
Outgoing: 4
